meta.source: PubChem BioAssay (NCATS)

- experiment summary: S16 Schwann cell PMP22 intronic element firefly luciferase assay (AID 624032); note: nearly all actives have a fitted effect of over 30% in size
- recorded conditions: S16 rat Schwann cells, PMP22 element FLuc, 24 h; series mostly up to 57.5 µM
Inconclusive results are not listed. Activity calls are given as the source filed them. Calls come from the whole dose curve; as a rule, active = well fitted inhibition curve with a large enough effect; inconclusive = small, poorly fitted or top-dose-only effect; inactive = no such curve, though single readings can be large or run the other way. Peptide text beside a SMILES is read from it.
Possible outcomes: yes (active), no (inactive)

* CCCCC(C)(O)C/C=C/[C@H]1[C@H](O)CC(=O)[C@@H]1CCCCCCC(=O)OC (stereo partly specified) | yes
* Clc1cc(Cl)c(OCC#CI)cc1Cl | yes
* COc1ccc2c3c1O[C@H]1C[C@@H](O)C=C[C@@]31CCN(C)C2 | no
* Nc1ncnc2c1ncn2[C@@H]1O[C@H](COP(=O)(O)OP(=O)(O)OP(=O)(O)O)[C@@H](O)[C@H]1O | no
* CC(=O)N[C@@H](CC(=O)O)C(=O)N[C@@H](CCC(=O)O)C(=O)O (Ac-Asp-Glu-OH) | no
* CN1C(=O)CN2CCc3ccccc3C2c2cc(Cl)ccc21 (stereo unspecified) | no
* CC(C)(C)NC(=O)[C@@H]1C[C@@H]2CCCC[C@@H]2CN1C[C@@H](O)[C@H](Cc1ccccc1)NC(=O)[C@H](CC(N)=O)NC(=O)c1ccc2ccccc2n1 | yes
* Oc1cc(O)c2c(c1)OC(c1ccc(O)c(O)c1)C(O)C2 (stereo unspecified) | no
* CC(O)CO (stereo unspecified) | no
* COCC(=O)Nc1cc(Sc2ccccc2)ccc1N=C(NC(=O)OC)NC(=O)OC | no
* C[C@]12CCC(=O)C=C1CC[C@@H]1[C@@H]2[C@@H](O)C[C@@]2(C)[C@H]1CC[C@]2(O)C(=O)COP(=O)(O)O | no
* CCCCCCCCCCCC[n+]1ccc2ccccc2c1 | yes
* COC(=O)CCC(=O)CN | no
* CC1(C)S[C@@H]2[C@H](NC(=O)[C@@H](NC(=O)N3CCNC3=O)c3ccccc3)C(=O)N2[C@H]1C(=O)O | no
* CN1Cc2c(N)cccc2C(c2ccccc2)C1 (stereo unspecified) | no
* COC(F)(F)C(Cl)Cl | no
* CCCCC(=O)O[C@]1(C(=O)CO)[C@H](C)C[C@H]2[C@@H]3CCC4=CC(=O)C=C[C@]4(C)[C@@]3(F)[C@@H](O)C[C@@]21C | no
* CCCCC/C=C\C/C=C\CCCCCCCC(=O)O | no
* CCCCCCCC(=O)O | no
* Cc1c(C)c2c(c(C)c1O)CC[C@@](C)(CCC[C@@H](C)CCC[C@@H](C)CCCC(C)C)O2 | no
* CC(=O)Oc1cc(C)c(OC(C)=O)c2ccccc12 | yes

* * *

- Tested on: Zika virus NS2B-NS3 protease (unlinked complex)
- experiment summary: Primary screen GU Rhodamine qHTS for Zika virus inhibitors: Unlinked NS2B-NS3 protease assay (AID 1347159); note: nearly all actives have a fitted effect of over 60% in size
- recorded conditions: Recombinant ZIKV NS2B-NS3 protease, Rhodamine110 substrate fluorescence; series mostly up to 107 µM
Results filed as inconclusive are left out. Calls of active or inactive are those of the source. Calls come from the whole dose curve; as a rule, active = well fitted inhibition curve with a large enough effect; inconclusive = small, poorly fitted or top-dose-only effect; inactive = no such curve, though single readings can be large or run the other way. Where a SMILES comes first, the peptide text is derived from it. [ ]: non-standard residue; d: D form. The star is where a group is joined. AFC = O=c1cc(C(F)(F)F)c2ccc(N*)cc2o1
Possible outcomes: true for active, false for inactive

• COc1cc(/C=C/C(=O)O[C@H]2[C@H](O)[C@@H](CO)O[C@@]2(CO)O[C@H]2O[C@H](COC(=O)c3ccc(O)cc3)[C@@H](O)[C@H](O)[C@H]2O)cc(OC)c1OC = false
• CC1CCC2C(C)(C)C(O)CCC2(C)C12Cc1c(O)cc3c(c1O2)CN(C(CCC(N)=O)C(=O)O)C3=O (stereo unspecified) = false
• COc1ccc2c(c1)O[C@H](O[C@@H]1O[C@H](CO)[C@@H](O)[C@H](O)[C@H]1O)C(=O)N2 = false
• O=S(=O)(NC1CCNCC1)c1cc(S(=O)(=O)c2ccccc2)ccc1C(F)(F)F = false
• Nc1ccn([C@@H]2C(F)=C(CO)[C@@H](O)[C@H]2O)c(=O)n1 = false
• O=C(NCC(=O)N1CC[C@H](NC2CCC(O)(c3ccc(-c4ncccn4)cn3)CC2)C1)c1cccc(C(F)(F)F)c1 (stereo partly specified) = false
• CC(=O)NC(C(=O)OC1CCC(C)(C)C2CC=C3C(=O)OCC3(O)C12C)C(C)C (stereo unspecified) = false
• CC(=O)N[C@@H](CC(C)C)C(=O)N[C@@H](CCC(=O)O)C(=O)N[C@@H](CCC(=O)O)C(=O)N[C@@H](CC(=O)O)C(=O)Nc1ccc2c(C(F)(F)F)cc(=O)oc2c1 (Ac-LEED-{AFC}) = false
• CCC[C@@H]1C[C@@H](C(=O)N[C@H](C(C)Cl)[C@H]2O[C@H](SC)[C@H](O)[C@@H](O)[C@H]2O)N(C)C1 (stereo partly specified) = false
• COc1cc(C/C(=C/NC(C)=O)N(CC(=O)Cc2ccccc2)C(C)=O)cc2c1OCO2 = false
• CC1(C)CC2C(O)C3=C(CC(C)(O)C2C1)C(=O)OC3O (stereo unspecified) = false
• OC[C@H]1O[C@@H](n2cnc3c2NC=NC[C@H]3O)C[C@@H]1O = false
• COc1ccc(C)c2sc(NC(=O)c3ccncc3)nc12 = false
• C/C1=C\C[C@H](O[C@@H]2O[C@H](CO)[C@@H](O)[C@H](O)[C@H]2O)/C(C)=C/[C@H]2OC(=O)[C@H](C)[C@@H]2CC1 = false
• C[C@@H]1CC[C@H]2C(C)(C)[C@H](O)[C@H](O)C[C@]2(C)[C@@]12Cc1c(O)cc3c(c1O2)CNC3=O = false
• O=C(O)c1cc(O)c2cccc(O)c2c1O[C@@H]1O[C@H](CO)[C@@H](O)[C@H](O)[C@H]1O = true
• FC(F)(F)c1cc(C(F)(F)F)c2ccc3nc(-c4nnco4)cn3c2n1 = false
• C=CC(C)(O)CO[C@@H]1O[C@H](CO)[C@@H](O)[C@H](O)[C@H]1O (stereo partly specified) = false
• C/C(=C/CO)CC[C@@H]1[C@@]2(C)CCC[C@](C)(C(=O)O)C2CC[C@@]1(C)O (stereo partly specified) = false
• CCC(CC)n1ccc2c(C(=O)NCc3c(C)cc(C)[nH]c3=O)cc(C#N)cc21 = false
• CC(C)(O)c1ccc2c(c1)C(O)CC1C(C)(C(=O)O)CCCC21C (stereo unspecified) = false
• C=CC(C)(C)C12CC3C(=O)NC(Cc4cnc[nH]4)C(=O)N3C1Nc1ccccc12 (stereo unspecified) = false
• COC(=O)[C@]12C(=O)C(C)=C(O)[C@@]1(C)C(C)=CC1[C@@]34CC[C@@H](OC(C)=O)C(C)(C)C3[C@H](C[C@]12C)OC4=O (stereo partly specified) = false
• Cc1c(N2C(=O)c3ccc(C(=O)O)cc3C2=O)c(=O)n(-c2ccccc2)n1C = false
• N[C@@H](CC(=O)N1CCn2c(nnc2C(F)(F)F)C1)Cc1[nH]nc2c(F)c(F)ccc12 = false
• C[C@@H]1C[C@H]2[C@@H]3CCC4=CC(=O)C=C[C@]4(C)[C@@]3(F)[C@@H](O)C[C@]2(C)[C@@]1(O)C(=O)COP(=O)(O)O = false
• CC(=O)N[C@H](Cc1ccc(O)cc1)C(=O)N[C@H](CCCN=C(N)N)C(=O)N[C@H](Cc1ccccc1)C(N)=O (Ac-[dY]-[dR]-[dF]-NH2) = false
• CN1C(=O)N[C@@H](Cc2c[nH]c3c(Cl)cccc23)C1=O = false
• CC(C)=CCC[C@](C)(O[C@@H]1O[C@H](CO[C@@H]2OC[C@@H](O)[C@H](O)[C@H]2O)[C@@H](O)[C@H](O)[C@H]1O)[C@H]1CC[C@]2(C)[C@@H]1[C@H](O)C[C@@H]1[C@@]3(C)CC[C@H](O[C@@H]4O[C@H](CO)[C@@H](O)[C@H](O)[C@H]4O[C@@H]4O[C@H](CO)[C@@H](O)[C@H](O)[C@H]4O)C(C)(C)[C@@H]3CC[C@]12C = false
• CCC(NC(=O)CC(NC(=O)C(CO)NC(=O)C(CC)NC(=O)c1ccc[nH]1)c1ccccc1)C(=O)O (stereo unspecified) = false
• CC(=O)NC(CCC(=O)O)C(=O)NCCc1ccc(O)cc1 (stereo unspecified) = false
